# target_under_test: 5-hydroxytryptamine receptor 5A (Homo sapiens)
# Sequence (P47898 whole entry): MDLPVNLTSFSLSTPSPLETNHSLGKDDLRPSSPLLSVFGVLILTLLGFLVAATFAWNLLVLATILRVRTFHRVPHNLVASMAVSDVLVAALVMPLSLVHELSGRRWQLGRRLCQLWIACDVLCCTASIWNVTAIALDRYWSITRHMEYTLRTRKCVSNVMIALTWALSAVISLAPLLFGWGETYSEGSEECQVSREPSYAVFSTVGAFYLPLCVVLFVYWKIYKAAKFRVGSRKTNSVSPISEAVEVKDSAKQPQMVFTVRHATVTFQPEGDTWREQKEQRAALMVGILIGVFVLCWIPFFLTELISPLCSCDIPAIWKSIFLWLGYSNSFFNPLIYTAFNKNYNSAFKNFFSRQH
pKi: −log10 of the molar value.
quantity_measured: pKi

The reported pKi of the molecule "CC(=O)c1ccc(OCc2ccc(Oc3cc(-c4nn[nH]n4)ccn3)cc2)c(C)c1O" was < 5.16

---

# target_under_test: hERG (KCNH2) (Homo sapiens)
# Sequence (Q12809 whole entry): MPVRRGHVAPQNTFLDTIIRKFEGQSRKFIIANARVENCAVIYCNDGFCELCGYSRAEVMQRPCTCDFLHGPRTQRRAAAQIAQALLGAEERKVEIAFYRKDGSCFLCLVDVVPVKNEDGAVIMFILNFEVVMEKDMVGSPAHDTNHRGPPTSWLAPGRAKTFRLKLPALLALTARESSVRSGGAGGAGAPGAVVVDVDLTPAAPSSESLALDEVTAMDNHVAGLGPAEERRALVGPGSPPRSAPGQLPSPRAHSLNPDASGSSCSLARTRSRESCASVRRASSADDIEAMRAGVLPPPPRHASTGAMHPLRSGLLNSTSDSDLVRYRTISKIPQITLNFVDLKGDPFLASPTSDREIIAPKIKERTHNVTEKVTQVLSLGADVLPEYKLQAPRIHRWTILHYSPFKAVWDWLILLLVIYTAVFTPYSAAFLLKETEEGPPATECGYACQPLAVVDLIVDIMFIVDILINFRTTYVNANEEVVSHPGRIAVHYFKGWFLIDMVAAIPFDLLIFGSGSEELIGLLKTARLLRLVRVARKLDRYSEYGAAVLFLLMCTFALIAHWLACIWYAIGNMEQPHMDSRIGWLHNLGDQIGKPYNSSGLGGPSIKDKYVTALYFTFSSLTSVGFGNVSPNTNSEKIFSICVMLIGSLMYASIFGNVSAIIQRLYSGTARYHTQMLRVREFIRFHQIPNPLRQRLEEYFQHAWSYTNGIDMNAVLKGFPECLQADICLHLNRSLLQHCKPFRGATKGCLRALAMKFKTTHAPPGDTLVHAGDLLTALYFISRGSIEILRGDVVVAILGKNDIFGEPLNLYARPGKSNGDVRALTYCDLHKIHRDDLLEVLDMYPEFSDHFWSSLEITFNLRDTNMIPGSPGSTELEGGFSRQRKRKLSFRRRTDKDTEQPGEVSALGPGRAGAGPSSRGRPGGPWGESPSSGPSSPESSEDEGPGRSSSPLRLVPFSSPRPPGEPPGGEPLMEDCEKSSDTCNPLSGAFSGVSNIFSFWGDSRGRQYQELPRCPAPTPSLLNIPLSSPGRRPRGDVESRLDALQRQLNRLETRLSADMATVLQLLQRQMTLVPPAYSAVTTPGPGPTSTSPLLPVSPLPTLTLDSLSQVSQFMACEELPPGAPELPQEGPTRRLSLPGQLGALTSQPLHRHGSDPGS
# test_description: Displacement of [3H]dofetilide from recombinant human ERG expressed in HEK293 cells measured after 60 mins by scintillation counting method
# Format: cell-based
# test_settings: HEK293 cells expressing recombinant human ERG, probe [3H]dofetilide
quantity_measured: inhibition at 1 h

Measured inhibition at 1 h, "CC(=O)c1ccc(OCc2ccc(Oc3cc(-c4nn[nH]n4)ccn3)cc2)c(C)c1O" : < 15%

---

# test_description: Half life in dog at 1 mg/kg, po
# Type: ADME, organism-based, Canis lupus familiaris
# test_settings: in vivo
quantity_measured: half-life (h)
State the answer as a number, implicitly in h.

GET /value?item= "CC(=O)c1ccc(OCc2ccc(Oc3cc(-c4nn[nH]n4)ccn3)cc2)c(C)c1O" &field=half-life returns 1

---

# target_under_test: Metabotropic glutamate receptor 2 (Homo sapiens, UniProt Q14416)
# Sequence (Q14416 whole entry): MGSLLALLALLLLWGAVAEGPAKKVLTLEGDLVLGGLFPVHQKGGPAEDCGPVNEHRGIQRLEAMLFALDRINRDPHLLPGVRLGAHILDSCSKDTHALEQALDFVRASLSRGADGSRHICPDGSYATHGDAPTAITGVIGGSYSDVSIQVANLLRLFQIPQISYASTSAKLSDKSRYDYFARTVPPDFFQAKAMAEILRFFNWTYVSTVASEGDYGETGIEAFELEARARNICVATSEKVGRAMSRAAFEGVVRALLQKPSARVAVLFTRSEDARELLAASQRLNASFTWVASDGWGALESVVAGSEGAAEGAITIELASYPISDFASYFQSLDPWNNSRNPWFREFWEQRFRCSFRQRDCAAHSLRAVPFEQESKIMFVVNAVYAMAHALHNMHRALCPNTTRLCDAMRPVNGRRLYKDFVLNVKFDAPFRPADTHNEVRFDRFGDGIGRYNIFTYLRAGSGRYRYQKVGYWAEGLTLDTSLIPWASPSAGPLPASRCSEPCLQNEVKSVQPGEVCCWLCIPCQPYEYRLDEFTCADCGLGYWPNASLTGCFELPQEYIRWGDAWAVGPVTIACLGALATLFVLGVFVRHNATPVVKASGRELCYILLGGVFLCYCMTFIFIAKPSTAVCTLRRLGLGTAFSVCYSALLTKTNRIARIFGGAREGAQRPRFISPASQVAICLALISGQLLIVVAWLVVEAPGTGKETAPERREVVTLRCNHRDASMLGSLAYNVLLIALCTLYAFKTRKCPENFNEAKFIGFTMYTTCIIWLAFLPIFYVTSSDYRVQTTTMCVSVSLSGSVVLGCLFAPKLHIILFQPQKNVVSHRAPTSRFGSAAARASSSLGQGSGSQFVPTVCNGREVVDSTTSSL
# test_description: Positive allosteric modulation of recombinant human mGlu2 receptor expressed in hamster AV12 cells expressing EAAT1 assessed as potentiation of glutamate-induced intracellular calcium level measured after 24 to 48 hrs by FLIPR assay
# Assay type: functional, cell-based
quantity_measured: EC50

// recorded EC50 for "CC(=O)c1ccc(OCc2ccc(Oc3cc(-c4nn[nH]n4)ccn3)cc2)c(C)c1O" : 201 to 287 nM

Value of measured EC50 for the entry "CC(=O)c1ccc(OCc2ccc(Oc3cccc(-c4nn[nH]n4)c3)cc2)c(C)c1O" : 293 to 336 nM

The recorded EC50 for "CC(=O)c1ccc(OCc2cccc(Oc3cc(-c4nn[nH]n4)ccn3)c2)c(C(F)(F)F)c1O" is 6 to 6.4 nM

Source of measurements: ChEMBL document CHEMBL3872247
